Where these numbers come from: ChEMBL document CHEMBL5338773

Assay: Inhibition of human recombinant KDAC8
pIC50: −log10 of the molar value.
property-measured: pIC50

[[record]]
molecule_smiles = "CC1=NN(c2ccc(C(=O)O)cc2)C(=O)/C1=C\\c1ccc(-c2cc(C)c(C)cc2[N+](=O)[O-])o1"
numeric_result = 5.15


----------
Target: Histone acetyltransferase KAT2B (Homo sapiens)
Assay: Inhibition of recombinant human KAT2B (492 to 658 residues) using histone H3 peptide and [3H]-acetyl-coA as substrates at 200 uM incubated for 1 hrs by liquid scintillation counter analysis
Active and inactive are the calls of the source. The calls are words filed in the database; no cut-off is given here.
property-measured: inhibition

[[record]]
compound = "CC1=NN(c2ccc(C(=O)O)cc2)C(=O)/C1=C\\c1ccc[nH]1"
system_under_test = "Histone acetyltransferase KAT2B (Homo sapiens)"
result = "inactive"

[[record]]
compound = "CC1=NN(c2ccc(C(=O)O)cc2)C(=O)/C1=C\\c1cc[nH]c1"
system_under_test = "Histone acetyltransferase KAT2B (Homo sapiens)"
result = "inactive"

[[record]]
compound = "CC1=NN(c2ccc(C(=O)O)cc2)C(=O)/C1=C\\c1cc(C(=O)c2ccccc2)c[nH]1"
system_under_test = "Histone acetyltransferase KAT2B (Homo sapiens)"
result = "inactive"

[[record]]
compound = "CC1=NN(c2ccc(C(=O)O)cc2)C(=O)/C1=C\\c1cc(C(=O)c2ccccc2Cl)c[nH]1"
system_under_test = "Histone acetyltransferase KAT2B (Homo sapiens)"
result = "inactive"

[[record]]
compound = "CC1=NN(c2ccc(C(=O)O)cc2)C(=O)/C1=C\\c1c[nH]cn1"
system_under_test = "Histone acetyltransferase KAT2B (Homo sapiens)"
result = "inactive"

[[record]]
compound = "CC1=NN(c2ccc(C(=O)O)cc2)C(=O)/C1=C\\c1cc2ccccc2[nH]1"
system_under_test = "Histone acetyltransferase KAT2B (Homo sapiens)"
result = "inactive"

[[record]]
compound = "CC(C)C1=NN(c2ccc(C(=O)O)cc2)C(=O)/C1=C\\c1ccc[nH]1"
system_under_test = "Histone acetyltransferase KAT2B (Homo sapiens)"
result = "inactive"

[[record]]
compound = "CC1=NN(c2ccc(C(=O)N(C)C)cc2)C(=O)/C1=C\\c1ccc[nH]1"
system_under_test = "Histone acetyltransferase KAT2B (Homo sapiens)"
result = "inactive"

[[record]]
compound = "CC1=NN(c2cccc(C(=O)O)c2)C(=O)/C1=C\\c1ccc[nH]1"
system_under_test = "Histone acetyltransferase KAT2B (Homo sapiens)"
result = "inactive"

[[record]]
compound = "Cc1nn(-c2ccc(C(=O)O)cc2)c(O)c1Cc1ccccc1"
system_under_test = "Histone acetyltransferase KAT2B (Homo sapiens)"
result = "inactive"

[[record]]
compound = "CC1=NN(c2ccc(C(=O)O)cc2)C(=O)/C1=C\\c1ccc(-c2cc(C)c(C)cc2[N+](=O)[O-])o1"
system_under_test = "Histone acetyltransferase KAT2B (Homo sapiens)"
result = "inactive"

[[record]]
compound = "CC1=NN(c2ccc(C(=O)O)cc2)C(=O)/C1=C\\c1ccccc1"
system_under_test = "Histone acetyltransferase KAT2B (Homo sapiens)"
result = "inactive"

[[record]]
compound = "O=C(O)c1ccc(N2N=C(Cc3ccccc3)/C(=C/c3ccc[nH]3)C2=O)cc1"
system_under_test = "Histone acetyltransferase KAT2B (Homo sapiens)"
result = "inactive"

[[record]]
compound = "CC1=NN(c2ccc(C(=O)O)cc2)C(=O)C1=Cc1ccco1 (mixture of isomers)"
system_under_test = "Histone acetyltransferase KAT2B (Homo sapiens)"
result = "inactive"

[[record]]
compound = "CC1=NN(c2ccc(C(=O)O)cc2)C(=O)/C1=C\\c1cccs1"
system_under_test = "Histone acetyltransferase KAT2B (Homo sapiens)"
result = "inactive"

[[record]]
compound = "CC1=NN(c2ccc(C(=O)O)cc2)C(=O)/C1=C\\c1ccn[nH]1"
system_under_test = "Histone acetyltransferase KAT2B (Homo sapiens)"
result = "inactive"

[[record]]
compound = "CC1=NN(c2ccc(C(=O)O)cc2)C(=O)/C1=C\\c1cc(C(=O)c2ccccc2C)c[nH]1"
system_under_test = "Histone acetyltransferase KAT2B (Homo sapiens)"
result = "inactive"

[[record]]
compound = "Cc1nn(-c2ccc(C(=O)O)cc2)c(O)c1Cc1ccc[nH]1"
system_under_test = "Histone acetyltransferase KAT2B (Homo sapiens)"
result = "inactive"

[[record]]
compound = "CC1=NN(c2ccc(C(=O)O)cc2)C(=O)/C1=C(/C)c1ccc[nH]1"
system_under_test = "Histone acetyltransferase KAT2B (Homo sapiens)"
result = "inactive"

[[record]]
compound = "CC1=NN(c2ccc(C(=O)O)cc2)C(=O)/C1=C\\c1cccn1-c1ccccc1"
system_under_test = "Histone acetyltransferase KAT2B (Homo sapiens)"
result = "inactive"

